Tested on: AncSZ
Experiment: phosphorylation enrichment, bacterial display (enrichment ratio); higher = better substrate or ligand; peptides without Tyr show the background
# phosphorylation enrichment annotations
Response field accepts a number only; no unit should be typed.

Worked examples, 3 sequences total:
ELTTCYRKKCC [CCBE1_Y70]
0.817
CFVFFYSFLLK [PTEN_Y178_R173C_YF]
0.997
NTVLGYFIGRI [GARS1_Y408]
0.973

-- ask # get_value(readout='phosphorylation enrichment', item= YAGRDYSLDEF [MYOF_Y1705_G1701A] )
-- reply 1.06

-- ask Form field: reported phosphorylation enrichment of QWQQLYDTLNA [EIF3M_Y351]
-- reply 1.63

-- ask phosphorylation enrichment lookup needed for DFSLKYPTDIP [APC_Y1183_A1184P_YF] , thanks.
-- reply 1.03

###

Tested on: c-Abl (mouse)
Test: phosphorylation enrichment, bacterial display (enrichment ratio); higher = better substrate or ligand; peptides without Tyr show the background
Known phosphorylation enrichment of a selection of sequences
Give your answer as a number; write no unit.

YRKNTYNVKST [SYNE2_Y575_I574T]
0.351
ELPEKYSQNIC [PKP2_Y626_Y631C]
0.956
WQQQSYLDYGI [CTNNB1_Y30_S33Y]
0.711
SQQTFYPVSNM [ABCD1_Y181_R182P_YF]
0.57
KMMGRYEMYAR [UPB1_Y362_T359M]
0.367
MHDSNCVSKGS [PDGFRA_Y849_Y849C]
0.559
GSRGKYFSGFR [ATM_Y332_S333F]
0.657
HNLNYYKKTTN [FGFR3_Y648_D646N]
0.554

-- ask Entry MSSLFYANALF [HOXB7_Y6_T9A_YF] has what phosphorylation enrichment?
-- reply 0.696

###

Molecular target: Jak2 (UniProt O60674)
Sequence (O60674 whole entry, looked up): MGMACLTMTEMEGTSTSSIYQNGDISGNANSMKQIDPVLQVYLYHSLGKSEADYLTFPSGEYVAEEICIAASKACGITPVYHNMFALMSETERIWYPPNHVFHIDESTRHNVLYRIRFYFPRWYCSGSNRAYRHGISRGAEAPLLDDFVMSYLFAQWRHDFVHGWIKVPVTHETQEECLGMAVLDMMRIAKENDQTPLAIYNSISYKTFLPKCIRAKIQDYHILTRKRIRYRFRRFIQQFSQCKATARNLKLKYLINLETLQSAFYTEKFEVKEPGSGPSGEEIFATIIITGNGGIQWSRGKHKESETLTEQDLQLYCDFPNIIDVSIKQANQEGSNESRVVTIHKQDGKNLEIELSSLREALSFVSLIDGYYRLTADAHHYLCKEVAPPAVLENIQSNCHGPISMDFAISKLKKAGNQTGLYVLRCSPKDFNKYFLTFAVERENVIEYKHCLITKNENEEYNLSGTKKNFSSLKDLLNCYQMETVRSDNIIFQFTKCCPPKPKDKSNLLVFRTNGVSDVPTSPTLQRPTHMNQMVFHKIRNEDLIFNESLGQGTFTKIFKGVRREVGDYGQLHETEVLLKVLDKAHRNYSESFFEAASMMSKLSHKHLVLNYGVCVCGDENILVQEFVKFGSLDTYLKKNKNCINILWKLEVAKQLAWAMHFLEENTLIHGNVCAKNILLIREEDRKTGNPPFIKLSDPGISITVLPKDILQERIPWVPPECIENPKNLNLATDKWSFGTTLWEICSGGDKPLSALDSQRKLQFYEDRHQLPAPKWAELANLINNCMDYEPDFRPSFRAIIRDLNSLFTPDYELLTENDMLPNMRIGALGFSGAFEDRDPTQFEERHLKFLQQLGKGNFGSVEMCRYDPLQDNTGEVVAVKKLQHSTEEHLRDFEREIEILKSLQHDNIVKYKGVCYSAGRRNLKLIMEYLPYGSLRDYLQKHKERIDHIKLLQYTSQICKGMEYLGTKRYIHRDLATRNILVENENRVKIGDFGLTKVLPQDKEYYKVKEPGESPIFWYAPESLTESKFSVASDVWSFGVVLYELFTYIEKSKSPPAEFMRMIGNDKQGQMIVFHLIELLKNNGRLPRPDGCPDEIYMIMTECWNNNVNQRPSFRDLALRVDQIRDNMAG
Assay: phosphorylation enrichment, bacterial display (enrichment ratio); higher = better substrate or ligand; peptides without Tyr show the background
Listed here are sequences together with their documented phosphorylation enrichment.
Would you mind answering with just the numeric figure?

FADIAYNYRHG [PAH_Y166]
0.754
PVADPYDQSFE [MAPK14_Y323]
2.29
TLQSMYGCDLG [HLA-B_Y123_V127L]
1.06
DVYVSYDYGKS [SORL1_Y139]
0.795
LFSLGYHQSRW [GANAB_Y396]
0.767

Proceeding to the next sequence to report its phosphorylation enrichment.
-- ask # lookup: phosphorylation enrichment of RESYKYFPSSL [CXXC1_Y218]
-- reply 1.15

###

# maps each entry to its SH2 binding enrichment
Biological target: SHP2-C SH2
Test: SH2 binding enrichment of the phosphorylated peptide, bacterial display (enrichment ratio); higher = better substrate or ligand; peptides without Tyr show the background
Enter the number alone.

Worked cases, answers included:
INNKMYDPKMN [ENPP1_Y280_D276N]
0.69
RESYKYFPSSL [CXXC1_Y218]
0.697
PTDSVYVMPTV [MYO7A_Y1668]
0.683
VASSLYDIFAR [GLB1_Y294_L297F]
0.884
FADIAYNFRHA [PAH_Y166_G171A_YF]
0.903

-- ask So what does the record say about SH2 binding enrichment for CTLLPYYSARV [DGKE_Y269] ?
-- reply 0.889

-- ask Fill in the blank: the reported SH2 binding enrichment of ICGVSYDEYRY [CFTR_Y512_F508C] is ____.
-- reply 0.681

###

System: c-Src
Assay: phosphorylation enrichment, bacterial display (enrichment ratio); higher = better substrate or ligand; peptides without Tyr show the background
Use 0.6 as the dividing line for phosphorylation enrichment, with the line itself on the criterion met side and lower values as criterion not met.

SLVGCYNLTFM [HS6ST3_Y323]
criterion met
HNLDYYKETTN [FGFR3_Y648_K650E]
criterion not met
PEADKYRLPYA [FGG_Y300_T303P]
criterion not met

-- ask Does phosphorylation enrichment meet or surpass 0.6 for KSVLVYRNGDP [DCDC2_Y22] ?
-- reply criterion not met

-- ask Form field: phosphorylation enrichment at least 0.6? Entry: PFTRNYFVQAV [CYBA_Y87_R90Q_YF]
-- reply criterion not met

-- ask Is it the case that MFDKEYFSVHN [MET_Y1234_YF] has phosphorylation enrichment reaching or exceeding 0.6?
-- reply criterion met

-- ask # bool: phosphorylation enrichment of HRGFLYLAIEF [TEK_Y899_Y897F_YF] >= 0.6
-- reply criterion met

-- ask Hi team, for QTEAPYRFIFM [PTPN11_Y511_Q510P_YF] , is the recorded phosphorylation enrichment at or above 0.6?
-- reply criterion met

-- ask Given GKGGSYSQAAS [HLA-B_Y344_C349S] , state whether its phosphorylation enrichment is at least 0.6.
-- reply criterion not met

-- ask Evaluate LFPANYVAPMT [GRAP2_Y324] : phosphorylation enrichment at minimum 0.6?
-- reply criterion not met

-- ask Does phosphorylation enrichment meet or surpass 0.6 for TLERHYEELQA [SPTBN2_Y834] ?
-- reply criterion not met

-- ask Would you say FKWAVYCIIGR [NUP93_Y391_R388W_YF] shows phosphorylation enrichment at minimum 0.6?
-- reply criterion met

###

System: Fer (mouse)
Assay: phosphorylation enrichment, bacterial display (enrichment ratio); higher = better substrate or ligand; peptides without Tyr show the background
reported.metric: phosphorylation enrichment
In your answer, state the number alone without any accompanying words.

Please review the following examples before continuing.
WVYNHYRWIIW [BRCA2_Y2624]
0.431
NGLVACKDGKL [PMM2_Y76_Y76C]
0.419
VASSLYDIFAR [GLB1_Y294_L297F]
3.12

-- ask Record LARNMYDKEYY [MET_Y1230_D1228N] : what is its phosphorylation enrichment with Fer (mouse)?
-- reply 0.468

-- ask Provide value of phosphorylation enrichment for this record tested with Fer (mouse): KSELAYEIFDK [MYOM2_Y1024]
-- reply 1

-- ask Given the entry IHHIDYYKKTT [FGFR1_Y653] , what phosphorylation enrichment was observed with Fer (mouse)?
-- reply 0.961

-- ask Param readout = phosphorylation enrichment; param system = Fer (mouse); param query = EFKDAYTFAAD [BRDT_Y335_K336T_YF] ; response: value
-- reply 0.477

-- ask Record lookup: for Fer (mouse), what phosphorylation enrichment belongs to NGLVAYKDGKL [PMM2_Y76] ?
-- reply 0.457

###

Biological target: Fes (UniProt P07332)
Sequence (P07332 whole entry, looked up): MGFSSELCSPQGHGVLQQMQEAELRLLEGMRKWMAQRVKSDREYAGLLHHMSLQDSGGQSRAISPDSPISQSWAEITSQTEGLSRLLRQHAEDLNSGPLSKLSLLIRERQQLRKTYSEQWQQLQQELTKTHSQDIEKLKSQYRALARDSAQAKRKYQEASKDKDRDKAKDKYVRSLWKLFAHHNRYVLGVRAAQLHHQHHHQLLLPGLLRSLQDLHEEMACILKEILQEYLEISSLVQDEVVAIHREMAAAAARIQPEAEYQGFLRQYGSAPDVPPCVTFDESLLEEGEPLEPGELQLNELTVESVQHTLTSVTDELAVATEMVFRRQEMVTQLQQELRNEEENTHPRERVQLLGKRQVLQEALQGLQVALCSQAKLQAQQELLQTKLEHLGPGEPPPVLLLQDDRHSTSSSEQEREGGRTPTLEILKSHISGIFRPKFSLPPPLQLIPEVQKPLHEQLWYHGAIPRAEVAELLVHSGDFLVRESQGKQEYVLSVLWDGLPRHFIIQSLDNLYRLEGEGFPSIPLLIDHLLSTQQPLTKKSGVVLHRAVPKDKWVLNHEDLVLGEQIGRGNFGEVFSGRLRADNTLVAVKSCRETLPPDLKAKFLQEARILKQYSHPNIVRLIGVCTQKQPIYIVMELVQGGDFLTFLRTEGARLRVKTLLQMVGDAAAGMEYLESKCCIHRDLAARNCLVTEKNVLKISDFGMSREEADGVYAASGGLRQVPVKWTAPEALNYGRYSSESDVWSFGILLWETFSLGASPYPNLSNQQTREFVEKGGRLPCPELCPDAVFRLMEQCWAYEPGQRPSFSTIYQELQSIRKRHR
Experiment: phosphorylation enrichment, bacterial display (enrichment ratio); higher = better substrate or ligand; peptides without Tyr show the background
Quick rule: phosphorylation enrichment of at least 0.8 means Satisfied, below that means Not satisfied.

Solved entries (count: 5):
GLGGVYGGASG [KRT8_Y54_G53V]
Not satisfied
EFKKHYGYSLY [ANXA3_Y295]
Not satisfied
LDYNEYFRGLN [HPRT1_Y198_D201G]
Satisfied
DQVEQYKKELE [LMNA_Y259]
Satisfied
CKRQFYLYKGK [RSPO4_Y112]
Satisfied

-- ask Could you please find out whether CTTIHYNYMFN [TP53_Y234_C238F] has phosphorylation enrichment that meets 0.8 or exceeds it?
-- reply Satisfied

-- ask Confirm if phosphorylation enrichment reported for the sequence MKALGYFAVGT [OPA1_Y498_V502G] is 0.8 or above.
-- reply Satisfied

-- ask Could you tell me if the measured phosphorylation enrichment of PPNSPYMGSSP [KCNT1_Y740_I741M] reaches 0.8 or more?
-- reply Satisfied

-- ask Hi team, for RTTKTYFPHFD [HBA1_Y43_P38R] , is the recorded phosphorylation enrichment at or above 0.8?
-- reply Satisfied

-- ask Reported phosphorylation enrichment reaches at least 0.8 for IHETTHNSIMK [ACTA1_Y281_Y281H] ?
-- reply Not satisfied

###

Target: c-Src SH2
Assay: SH2 binding enrichment of the phosphorylated peptide, bacterial display (enrichment ratio); higher = better substrate or ligand; peptides without Tyr show the background
Classification field: enter criterion met for SH2 binding enrichment values not below 0.5, criterion not met for values below it.

PEFMVYKPQME [CCRL2_Y170_V168M]
criterion not met

-- ask Could you please find out whether LKTNCYNNGKD [DNMT3B_Y404] has SH2 binding enrichment that meets 0.5 or exceeds it?
-- reply criterion not met

-- ask Form field: SH2 binding enrichment at least 0.5? Entry: HSVLNYGVCVC [JAK2_Y613_L609S]
-- reply criterion met

###

Target: SHP2-C SH2
Experiment: SH2 binding enrichment of the phosphorylated peptide, bacterial display (enrichment ratio); higher = better substrate or ligand; peptides without Tyr show the background
Think of 0.7 as a floor: if SH2 binding enrichment stands on it or above, it is T; beneath it, F.

-- ask Item PEFMVYKPQME [CCRL2_Y170_V168M] with SH2 binding enrichment of 0.7 or above?
-- reply F

-- ask Exam item: decide whether the reported SH2 binding enrichment for FTFNSYFMHWV [IGHV1-46_Y51_T49N_YF] is at least 0.7.
-- reply T

-- ask Dear colleague, could you confirm whether QLQTNYPSSDN [MAX_Y115] has SH2 binding enrichment at or above 0.7?
-- reply F
